Recorded values, source ChEMBL document CHEMBL3044741.

compounds and their reported EC50
# System: Cytomegalovirus
# Test: Antiviral activity against Cytomegalovirus Davis in HEL cells assessed as reduction in plaque formation
# Assay type: functional, organism-based
# Cond: Human betaherpesvirus 5, Davis

Here is how some compounds turned out for EC50.
>>> df
                              record_smiles  metric  test_value
0  Cc1ccc(-[n+]2noc([O-])c2CN2CCN(C)CC2)cc1    EC50  > 20 µg/mL
1  Cc1ccc(-[n+]2noc([O-])c2CN2CCN(C3=Nc4ccccc4Sc4ccccc43)CC2)cc1    EC50  > 20 µg/mL
2     Cc1ccc(-[n+]2noc([O-])c2CN2CCOCC2)cc1    EC50  > 20 µg/mL
3  [O-]c1c[n+](-c2ccc(Cc3ccc(-[n+]4cc([O-])on4)cc3)cc2)no1    EC50  > 20 µg/mL
4  [O-]c1on[n+](-c2ccc(Cc3ccc(-[n+]4noc([O-])c4CN4CCNCC4)cc3)cc2)c1CN1CCNCC1    EC50    20 µg/mL
5     Cc1ccc(-[n+]2noc([O-])c2CN2CCNCC2)cc1    EC50  > 20 µg/mL
6              Cc1ccc(-[n+]2cc([O-])on2)cc1    EC50  > 20 µg/mL

Next:
Tell me the measured EC50 of CC(=O)N1CCN(Cc2c([O-])on[n+]2-c2ccc(Cc3ccc(-[n+]4noc([O-])c4CN4CCN(C(C)=O)CC4)cc3)cc2)CC1 , please. > 4 µg/mL
